# EXPERIMENTAL_SYSTEM: T1, human collagen type I, acid soluble, extracted from placenta (Sigma C7774) (human, UniProt P02452 162-1218; P08123 80-1119)
# T1 construct: tissue extract, gelled and dried in wells; also called dried human collagen; h-Collagen
# T1 sequence (P02452 162-1218 limits assumed, chain 1 of 2): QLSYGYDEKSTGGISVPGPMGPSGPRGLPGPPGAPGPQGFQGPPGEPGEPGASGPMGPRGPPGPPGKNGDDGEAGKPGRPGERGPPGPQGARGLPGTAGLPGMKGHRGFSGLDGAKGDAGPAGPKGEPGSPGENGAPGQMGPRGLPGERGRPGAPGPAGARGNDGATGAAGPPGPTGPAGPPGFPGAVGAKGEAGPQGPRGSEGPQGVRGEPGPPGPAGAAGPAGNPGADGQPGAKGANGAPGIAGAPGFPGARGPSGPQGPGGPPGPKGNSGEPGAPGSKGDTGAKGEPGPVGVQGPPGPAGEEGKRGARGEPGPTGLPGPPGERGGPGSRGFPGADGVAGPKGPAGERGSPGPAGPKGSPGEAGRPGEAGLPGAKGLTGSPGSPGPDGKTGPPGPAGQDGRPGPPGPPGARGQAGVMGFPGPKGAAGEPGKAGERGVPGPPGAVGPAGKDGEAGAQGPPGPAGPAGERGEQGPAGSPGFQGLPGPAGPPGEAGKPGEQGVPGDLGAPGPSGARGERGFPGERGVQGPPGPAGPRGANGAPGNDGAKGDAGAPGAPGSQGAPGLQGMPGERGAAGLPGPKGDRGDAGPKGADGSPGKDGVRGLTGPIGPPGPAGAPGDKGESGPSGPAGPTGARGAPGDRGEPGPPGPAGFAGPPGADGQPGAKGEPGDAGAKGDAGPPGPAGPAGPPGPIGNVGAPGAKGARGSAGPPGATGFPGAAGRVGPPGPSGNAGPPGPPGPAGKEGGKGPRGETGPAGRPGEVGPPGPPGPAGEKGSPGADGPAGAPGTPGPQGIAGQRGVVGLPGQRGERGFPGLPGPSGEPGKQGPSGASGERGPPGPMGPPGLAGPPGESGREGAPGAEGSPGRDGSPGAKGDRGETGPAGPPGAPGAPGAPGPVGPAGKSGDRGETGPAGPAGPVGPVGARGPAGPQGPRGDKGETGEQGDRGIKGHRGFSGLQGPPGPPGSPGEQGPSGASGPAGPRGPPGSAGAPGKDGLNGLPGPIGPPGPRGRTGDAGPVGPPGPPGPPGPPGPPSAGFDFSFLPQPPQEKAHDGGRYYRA
# T1 sequence (P08123 80-1119 limits assumed, chain 2 of 2): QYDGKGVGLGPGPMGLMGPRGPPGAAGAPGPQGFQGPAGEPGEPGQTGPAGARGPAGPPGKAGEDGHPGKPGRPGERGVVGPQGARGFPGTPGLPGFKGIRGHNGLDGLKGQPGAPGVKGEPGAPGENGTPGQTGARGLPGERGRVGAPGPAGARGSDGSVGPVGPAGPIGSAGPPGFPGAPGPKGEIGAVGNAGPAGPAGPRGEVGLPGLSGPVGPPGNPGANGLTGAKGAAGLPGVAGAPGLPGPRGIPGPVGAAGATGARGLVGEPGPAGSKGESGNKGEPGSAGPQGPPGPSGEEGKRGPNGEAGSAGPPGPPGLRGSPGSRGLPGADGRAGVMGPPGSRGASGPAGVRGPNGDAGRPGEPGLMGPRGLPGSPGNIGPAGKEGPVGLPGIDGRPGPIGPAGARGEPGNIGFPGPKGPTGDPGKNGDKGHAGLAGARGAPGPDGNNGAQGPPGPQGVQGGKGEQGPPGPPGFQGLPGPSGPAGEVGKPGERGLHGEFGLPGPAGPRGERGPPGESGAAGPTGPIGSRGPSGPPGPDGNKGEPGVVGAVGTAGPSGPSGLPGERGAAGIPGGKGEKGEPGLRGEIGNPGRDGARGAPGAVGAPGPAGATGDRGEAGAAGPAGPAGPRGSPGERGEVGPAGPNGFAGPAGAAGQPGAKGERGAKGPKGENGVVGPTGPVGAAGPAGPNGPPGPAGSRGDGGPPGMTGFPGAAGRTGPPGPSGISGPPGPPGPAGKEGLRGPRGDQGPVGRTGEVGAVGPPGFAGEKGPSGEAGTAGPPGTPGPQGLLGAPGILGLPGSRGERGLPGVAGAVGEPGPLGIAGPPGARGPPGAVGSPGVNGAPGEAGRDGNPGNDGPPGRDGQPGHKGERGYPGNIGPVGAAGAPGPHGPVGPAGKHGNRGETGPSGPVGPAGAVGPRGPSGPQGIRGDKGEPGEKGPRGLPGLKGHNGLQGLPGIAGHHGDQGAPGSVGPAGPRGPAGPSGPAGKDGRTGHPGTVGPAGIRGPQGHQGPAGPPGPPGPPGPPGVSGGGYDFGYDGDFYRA
# ASSAY_INFO: dried collagen assay; also: test concentration or dose not given here
Bridge positions count the residues as written; N and C are the ends. Ends that are not written are not given here.
PARAMETER_MEASURED: % bound (%)

GWDCQGTDNIWECVRK (disulfide 4-13 (inferred), cyclic, disulfide) [SEQ ID NO 30] :: 16
TWACDLDEYGGWQCYTG (disulfide 4-14 (inferred), cyclic, disulfide) [SEQ ID NO 78] :: 8
YWVCGGDHQSWHCSHP (disulfide 4-13 (inferred), cyclic, disulfide) [SEQ ID NO 35] :: 8

(1) NWYCTGTKSWECFWK (disulfide 4-12 (inferred), cyclic, disulfide) [SEQ ID NO 7]
(2) EWRCRGDSSSWLCDYT (disulfide 4-13 (inferred), cyclic, disulfide) [SEQ ID NO 40]
(3) WAYCMTDPSGKYRYCQNW (disulfide 4-15 (inferred), cyclic, disulfide) [SEQ ID NO 102]
In: Parameters: sort_field (% bound), sort_dir (desc). # output: labels, in the requested order
Out: 3, 1, 2
